# System: PARP7 (Homo sapiens, UniProt Q7Z3E1)
# Construct: purchased BPS 80527
# Sequence (Q7Z3E1 1-657): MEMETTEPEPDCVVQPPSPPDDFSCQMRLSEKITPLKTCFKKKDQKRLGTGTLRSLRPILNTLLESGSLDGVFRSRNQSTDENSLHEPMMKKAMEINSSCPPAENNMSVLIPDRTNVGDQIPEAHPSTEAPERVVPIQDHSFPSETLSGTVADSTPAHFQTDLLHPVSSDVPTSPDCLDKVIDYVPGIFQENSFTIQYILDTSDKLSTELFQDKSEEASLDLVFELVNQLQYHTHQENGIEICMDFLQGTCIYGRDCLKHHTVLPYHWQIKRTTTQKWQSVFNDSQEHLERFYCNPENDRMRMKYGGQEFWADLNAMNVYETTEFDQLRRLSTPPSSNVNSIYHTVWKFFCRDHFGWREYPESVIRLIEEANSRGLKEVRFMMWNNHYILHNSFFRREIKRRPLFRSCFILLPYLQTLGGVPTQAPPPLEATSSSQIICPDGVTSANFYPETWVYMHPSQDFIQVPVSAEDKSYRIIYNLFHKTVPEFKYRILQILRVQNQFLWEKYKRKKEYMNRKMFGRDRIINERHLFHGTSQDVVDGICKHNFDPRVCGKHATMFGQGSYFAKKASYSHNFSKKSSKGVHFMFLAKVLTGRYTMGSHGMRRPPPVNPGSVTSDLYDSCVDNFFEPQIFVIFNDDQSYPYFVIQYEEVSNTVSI
# Test summary: PARP7 TR-FRET binding inhibition (displacement of probe RBN011147)
# Test conditions: TR-FRET, Biotin-labeled probe RBN011147; read-out: PARP7 binding inhibition IC50
Experimental readout: IC50

Before answering, review these 7 worked examples.
Compound: CC(CCCNC(=O)c1ccc(-c2cc(C(F)(F)F)sn2)cc1)Nc1cn[nH]c(=O)c1C(F)(F)F (centres unmarked) [Example 83]
System: PARP7 (Homo sapiens, UniProt Q7Z3E1)
Result value: < 10 nM
--
Compound: CC(CCCNC(=O)c1ccc(-c2ncc(C(F)(F)F)s2)cc1F)Nc1cn[nH]c(=O)c1C(F)(F)F (centres unmarked) [Example 77]
System: PARP7 (Homo sapiens, UniProt Q7Z3E1)
Result value: < 10 nM
--
Compound: CC(CCCNC(=O)c1ccc(-c2nnc(C(F)(F)F)s2)cc1)Nc1cn[nH]c(=O)c1C(F)(F)F (centres unmarked) [Example 82]
System: PARP7 (Homo sapiens, UniProt Q7Z3E1)
Result value: 30 to 100 nM
--
Compound: CC(CCCNC(=O)c1ccc(-c2ncn(C)n2)cc1)Nc1cn[nH]c(=O)c1C(F)(F)F (centres unmarked) [Example 47]
System: PARP7 (Homo sapiens, UniProt Q7Z3E1)
Result value: 10 to 30 nM
--
Compound: CC(CCCNC(=O)c1cnc(-c2ncc(C(F)F)s2)cn1)Nc1cn[nH]c(=O)c1C(F)(F)F (centres unmarked) [Example 25]
System: PARP7 (Homo sapiens, UniProt Q7Z3E1)
Result value: < 10 nM
--
Compound: CC(CCCNC(=O)c1ccc(-c2ncc(C3CC3)s2)cc1)Nc1cn[nH]c(=O)c1C(F)(F)F (centres unmarked) [Example 19]
System: PARP7 (Homo sapiens, UniProt Q7Z3E1)
Result value: < 10 nM
--
Compound: CC#Cc1cnc(-c2ccc(C(=O)NCCCC(C)Nc3cn[nH]c(=O)c3C(F)(F)F)cc2)s1 (centres unmarked) [Example 42]
System: PARP7 (Homo sapiens, UniProt Q7Z3E1)
Result value: 30 to 100 nM

// next item, IC50 requested
IC50 on PARP7 (Homo sapiens, UniProt Q7Z3E1) for O=C(CCc1c[nH]c(=O)c2ccccc12)Nc1ccc(-c2ncc(C(F)(F)F)cn2)cc1 [Example 12] is 10 to 30 nM
